Origin of the recorded values: patent US20220025021A1

Molecular target: HIV-1 Env of pseudovirus BB1012-11.TC21 (HIV-1)
Assay: cell-based or functional assay
neutralization IC80 values by entry
Give just the numeric value; µg/mL need not be written.

INSERT INTO measurements (binder, endpointunit, readoutvalue) VALUES
  ('MS-82 (antibody, V domains shown) VH: QVQLVQSGPEVRKPGTSVKVSCKAPGNTLKTYDLHWVRSVPGQGLQWMGWISHEGDKKVIVERFKAKVTIDWDRSTNTAYLQLSGLRSGDTAVYYCAKGSKHRLRDYALYDDDGALNWAVDVDYLSNLEFWGQGTAVTVSS VL: DFVLTQSPHSLSVTPGESASISCKSSHSLIHGDRNNYLAWYVQKPGRSPQLLIYLASSRASGVPDRFSGSGSDKDFTLKISRVETEDVGTYYCMQGRESPWTFGQGTKVDIKR', 'µg/mL', 0.108),
  ('MS-76 (antibody, V domains shown) VH: QVQLVQSGPEVRKPGTSVKVSCKAPGYTLKTYDLHWVRSVPGQGLQWMGWISHEGDKKVIVERFKAKVTIDWDRSTNTAYLQLSGLTSGDTAVYYCAKGSKHRLRDYALYDDDGALNWAVDVDYLSNLEFWGQGTAVTVSS VL: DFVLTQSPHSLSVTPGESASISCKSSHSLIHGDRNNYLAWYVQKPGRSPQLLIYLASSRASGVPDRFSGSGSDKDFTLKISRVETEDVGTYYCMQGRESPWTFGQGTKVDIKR', 'µg/mL', 0.059),
  ('MS-79 (antibody, V domains shown) VH: QVQLVQSGPEVRKPGTSVKVSCKAPGNTLKTYDLHWVRSVPGQGLQWMGWISHEGDKKVIVERFKAKVTITWDRSTNTAYLQLSGLTSGDTAVYYCAKGSKHRLRDYALYDDDGALNWAVDVDYLSNLEFWGQGTAVTVSS VL: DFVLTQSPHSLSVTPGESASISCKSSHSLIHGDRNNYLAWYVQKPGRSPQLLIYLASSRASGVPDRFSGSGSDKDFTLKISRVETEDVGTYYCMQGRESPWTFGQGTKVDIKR', 'µg/mL', 0.08);

Note: attention shifts to another entry.
Quick check: neutralization IC80 of MS-70 (antibody, V domains shown) VH: QVQLVQSGPEVRKPGTSVKVSCKAPGNTLKTYDLHWVRSVPGQGLQWMGWISHEGDKKVIVERFKAKVTIDWDRSTNTAYLQLSGLTSGDTAVYYCAKGSKHRLRDYALYDDDGALNWAVDVDYLSNLEFWGQGTAVTVSS VL: DFVLTQSPHSLSVTPGESASISCKSSHSLIHGDRNNYLAWYVQKPGQSPQLLIYLASSRASGVPDRFSGSGSDKDFTLKISRVETEDVGTYYCMQGRESPWTFGQGTKVDIKR ?
0.079
